// reported protein stability index per item
B1: TRIM14 (parent)
chain: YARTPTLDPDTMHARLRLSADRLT

Variants of: B1
Assay: protein stability index of a GFP-peptide fusion (GPS, HEK-293T) (PSI 1-6); higher = more stable;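 further: lentivirally expressed fusions sorted by FACS into six bins by GFP to DsRed ratio, PSI derived from sequencing read proportions per bin multiplied by bin number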
Details: c terminus: a fixed tail appended
The response must contain the number and no unit.

// solved cases for protein stability index follow
[[record]]
seq_string = "YARTPTLDPDTMHARLRLFADRLT"
value_measured = 1.99

[[record]]
seq_string = "YARTPTLDPDTMHARDRLSADRLT"
value_measured = 2.77

[[record]]
seq_string = "YARTPTLDPDTMHARLRLGADRLT"
value_measured = 2.21

[[record]]
seq_string = "YARTPTLDPDTMHARLRGSADRLT"
value_measured = 2.06

[[record]]
seq_string = "YARTPTLDPDTMHERLRLSADRLT"
value_measured = 2.67


// query protein stability index value for entry `YARTPTLDPDTMHARLRLSADRMT`
3.06

// query protein stability index value for entry `YARRPTLDPDTMHARLRLSADRLT`
3.13

// query protein stability index value for entry `YARTPTLDFDTMHARLRLSADRLT`
2.21

// query protein stability index value for entry `YARTPTLDPDTMHARLRLSADRLV`
2.21

// query protein stability index value for entry `YARTPTLDPDTMHARLRLWADRLT`
1.77

// query protein stability index value for entry `YARTPTLDPDTMHARLRLSAERLT`
2.53

// query protein stability index value for entry `YARTPTLDPDTMHARLRLSADHLT`
2.97

// query protein stability index value for entry `YARTPTLDPDTMNARLRLSADRLT`
2.75

// query protein stability index value for entry `YARTPTLDSDTMHARLRLSADRLT`
2.04

// query protein stability index value for entry `RARTPTLDPDTMHARLRLSADRLT`
3.64
